Biological target: T1, canine CD20 (canine, UniProt Q3C2E2 1-297)
T1 chain: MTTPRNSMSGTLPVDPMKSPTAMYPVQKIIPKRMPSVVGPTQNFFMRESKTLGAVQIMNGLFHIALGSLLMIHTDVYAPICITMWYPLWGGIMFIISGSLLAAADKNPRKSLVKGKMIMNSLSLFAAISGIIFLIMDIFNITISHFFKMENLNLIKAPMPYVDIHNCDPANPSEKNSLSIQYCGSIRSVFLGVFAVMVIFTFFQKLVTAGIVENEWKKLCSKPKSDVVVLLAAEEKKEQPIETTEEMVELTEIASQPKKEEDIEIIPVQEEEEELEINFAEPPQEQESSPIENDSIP
Assay: cell-based or functional assay
Readout type: CDC EC50 (nM)

>>> meas_value("PMX067 (antibody, V domains shown) VH: EIQLVESGGDLVKPGGSLRLSCVASGFTFSRYHMSWVRQAPGKGLQWVAYINTGGSNTNYADAVKGRFTISRDNAKNTLYLQMNSLRAEDTAVYYCTTLDSWGQGTLVTVSS VL: SYVLTQLPFKNVTLKQPAHITCGGDNIGSKSVHWYQQKLGQAPVLIIYYDSRRPTGIPERFSGANSGNTATLTISGALAEDEADYYCQVWDSSVNVFGGGTHLTVL")
11.3
>>> meas_value("PMX075 (antibody, V domains shown) VH: EVQLVESGGDLVKPGGSLRLSCVASGITFSRYHMSWVRQAPGKGLQWVAFINTGRSSTNYADAVAGRFTISRDNAKNTLYLQMNGLTVEDTAVYYCSTLDYWGQGTLVTVSS VL: SYVLTQLPSKSVTLKQPAHITCGGDNIGSKSVHWYQQKLGQAPILIIYYDNNRPTGIPERFSGANSGNTATLTISGALAEDEADYYCHVWDSSVNVFGGGTHLTVL")
6.02
>>> meas_value("PMX076 (antibody, V domains shown) VH: EVQLVESGGDLVKPGGSLRLSCVASGITFSRYYMNWVRQAPGKGLQWVAYIDSGGSPTTYADAVKGRFTISRDNAKKALYLQMNSLRAEDTAVYYCTSFDYWGQGTLVTVSS VL: SYVLTQLPSKNVTLKQPAHITCGGDNIGSKSVHWYQQKLGQAPVLIIYYDSSRPTGIPERFSGANSGNTATLTISGALAEDEADYFCQVWDSSANVFGGGTHLTVL")
7.76
